Test system: A431 cervical carcinoma cells
experiment: MTT cytotoxicity test, A431
Assay type: cell-based, human
condition_details: Homo sapiens, A-431, A431, 72 h, ± S.D.
Assignment: determine reported IC50 for the given compounds.

INPUT: Tell me reported IC50 for O=C(O)CCc1c[nH]c2ccccc12 [IPA, indole-3-propionic acid, reference compound] , tested with A431 cervical carcinoma cells.
OUTPUT: > 50 µM

Next compound, IC50 to be filled in.
INPUT: Tell me reported IC50 for O=C(O)Cc1c[nH]c2ccccc12 [IAA, indole-3-acetic acid, reference compound] , tested with A431 cervical carcinoma cells.
OUTPUT: > 50 µM

----------
experiment: Log P octanol/water, shake flask method with ICP-MS
Assay type: physicochemical
condition_details: n-octanol / 0.9% NaCl water, Pt by ICP-MS
measure_name: Log P (octanol/water)
Answers are plain numbers.

Some compounds with recorded Log P (octanol/water):
INPUT: Look at this compound and give its reported Log P (octanol/water). N.N.O=C(CCc1c[nH]c2ccccc12)[O][Pt]([Cl])([Cl])[O]C(=O)CCc1c[nH]c2ccccc12 [Complex 2P]
OUTPUT: −0.051

INPUT: Look at this compound and give its reported Log P (octanol/water). [NH2][Pt]([NH2])([Cl])([Cl])([O]C(=O)CCC(=O)O)[O]C(=O)Cc1c[nH]c2ccccc12 [Complex 4A]
OUTPUT: −0.190

INPUT: Look at this compound and give its reported Log P (octanol/water). [NH2][Pt]([NH2])([Cl])([Cl])([O]C(=O)Cc1c[nH]c2ccccc12)[O]C(=O)c1ccccc1 [Complex 3A]
OUTPUT: −0.037

INPUT: Look at this compound and give its reported Log P (octanol/water). [NH2][Pt]([NH2])([OH])([Cl])([Cl])[O]C(=O)Cc1c[nH]c2ccccc12 [Complex 1A]
OUTPUT: −0.220

INPUT: Look at this compound and give its reported Log P (octanol/water). [NH2][Pt]([NH2])([Cl])([Cl])([O]C(=O)CCc1c[nH]c2ccccc12)[O]C(=O)c1ccccc1 [Complex 3P]
OUTPUT: −0.028

INPUT: Look at this compound and give its reported Log P (octanol/water). CC(=O)[O][Pt]([NH2])([NH2])([Cl])([Cl])[O]C(=O)CCc1c[nH]c2ccccc12 [Complex 5P]
OUTPUT: −0.080

INPUT: Look at this compound and give its reported Log P (octanol/water). [NH2][Pt]([NH2])([OH])([Cl])([Cl])[O]C(=O)CCc1c[nH]c2ccccc12 [Complex 1P, cis,cis,trans-[Pt(NH3)2Cl2(IPA)(OH)]]
OUTPUT: −0.110

INPUT: Look at this compound and give its reported Log P (octanol/water). N.N.O=C(Cc1c[nH]c2ccccc12)[O][Pt]([Cl])([Cl])[O]C(=O)Cc1c[nH]c2ccccc12 [Complex 2A]
OUTPUT: −0.068

INPUT: Look at this compound and give its reported Log P (octanol/water). [NH2][Pt]([NH2])([Cl])([Cl])([O]C(=O)CCC(=O)O)[O]C(=O)CCc1c[nH]c2ccccc12 [Complex 4P]
OUTPUT: −0.100

Next compound, Log P (octanol/water) to be filled in.
INPUT: Look at this compound and give its reported Log P (octanol/water). CC(=O)[O][Pt]([NH2])([NH2])([Cl])([Cl])[O]C(=O)Cc1c[nH]c2ccccc12 [Complex 5A]
OUTPUT: −0.130

All values here come from paper PMC4941645.
